Assay comment: qHTS Assay for Lipid Storage Modulators (AID 1519); also: % is scaled to controls: 0 for no effect and ±100 for the full control effect
Assay context: Drosophila S3 cells, BODIPY lipid droplet/cell ratio, laser cytometry; at 57.5 µM (top of the series); cells loaded with oleic acid
Inconclusive results are not listed. Active and inactive are the calls of the source. Calls follow the shape of the full dose curve.
# key: entry, value: activity change, negative = inhibition

- COc1ccc(C(=O)N2CCC3(CCCN(Cc4ccccc4)C3)CC2)cc1: 4.53% (inactive)
- CN(C)c1ccc(-c2cc(NCc3cccnc3)ncn2)cc1: 7.63% (inactive)
- CC(=O)NC(C(=O)O)C(C)(C)SN=O (centres undefined): 0.182% (inactive)

Please find the next compound below.
Q: # lookup: activity change, negative = inhibition of COCC(=O)N1CCC2(CC1)CCN(C(=O)NC(C)C)CC2
Ans: 0.579% (inactive)
